# Tested on: Mus musculus
# ASSAY NOTES: AUC in C57BL/6J mouse at 1 mg/kg, po cassette dosing
# Type: ADME, organism-based, Plasma
# Parameters: dose 1 mg/kg, route oral
# CONDITION CONTEXT: in vivo
ENDPOINT: AUC (ng·h/mL)

> print(dat)
                            chemical.smiles  unit.symbol  measured.number
1  COc1cc(N2CCN(C(=O)Cn3cnc4cc(C(F)(F)F)ccc43)C[C@@H]2C)ccc1-c1cnc(C)o1      ng·h/mL             3930

----------
# Test system: neuronal
# ASSAY NOTES: Inhibition of amyloid beta40 production in rat neuronal cells assessed as maximal inhibition at 3 uM after 3 days by ELISA
# Format: cell-based
Reported inhibition values follow for various molecules
ENDPOINT: inhibition (%)

> print(dat)
                            chemical.smiles    endpoint  unit.symbol  measured.number
1  COc1cc(N2CCN(C(=O)N[C@@H](C)c3cccc4ccccc34)CC2)ccc1-c1cnn(C)c1  inhibition            %               63
2  COc1cc(N2CCN(C(=O)N[C@@H](C)c3cccc4ccccc34)CC2)ccc1-n1cnc(C)n1  inhibition            %               68
3  COc1cc(N2CCN(C(=O)NCc3cccc4ccccc34)CC2)ccc1-c1cnc(C)o1  inhibition            %               59
4  COc1cc(N2CCN(C(=O)N[C@@H](C)c3cccc4ccccc34)CC2)ccc1-n1cnc(C)c1  inhibition            %               57
5  COc1cc(N2CCN(C(=O)Cn3ncc4ccccc43)CC2)ccc1-c1cnc(C)o1  inhibition            %               49
6  COc1cc(N2CCN(C(=O)Cn3cnc4c(C(F)(F)F)cccc43)CC2)ccc1-c1cnc(C)o1  inhibition            %               53
7  COc1cc(N2CCN(C(=O)Cn3cnc4ccccc43)CC2)ccc1-c1cnc(C)o1  inhibition            %               71
8  COc1cc(N2CCN(C(=O)N[C@@H](C)c3cccc4ccccc34)CC2)ccc1-c1cnc(C)o1  inhibition            %               67
9  COc1cc(C2CCN(C(=O)N[C@@H](C)c3cccc4ccccc34)CC2)ccc1-c1cnc(C)o1  inhibition            %               61

The reported measurements were obtained from ChEMBL document CHEMBL3400145.
